# ASSAY PROCEDURE: Mouse pharmacokinetic studies: plasma drug concentrations by LC/MS/MS
# Format: in vivo, mice (BALB/C)
# TEST CONTEXT: oral, pharmacokinetic studies in mice (data not shown)
ENDPOINT LABEL: Cmax

Cc1c(O)cccc1C(=O)N[C@@H](CSc1ccccc1)[C@H](O)CN1C[C@H]2CCCC[C@H]2C[C@H]1C(=O)NC(C)(C)C ~8 µM

###

# ASSAY PROCEDURE: NFV and RIT concentrations in brain tissues of mice given NFV/RIT suspension
# Format: in vivo
# TEST CONTEXT: C57BL/6, mouse, brain, oral, RIT levels in brain tissue, 3 doses of NFV/RIT suspension, whole brain removed immediately preceding the fourth dose, two mice
ENDPOINT LABEL: concentration at 8 h (ng/g)

COMPOUND	ENDPOINT LABEL	REPORTED VALUE
CC(C)c1nc(CN(C)C(=O)N[C@H](C(=O)N[C@@H](Cc2ccccc2)C[C@H](O)[C@H](Cc2ccccc2)NC(=O)OCc2cncs2)C(C)C)cs1 [RIT, ritonavir]	concentration at 8 h	38000

###

# ASSAY PROCEDURE: Mouse pharmacokinetic studies: plasma drug concentrations by LC/MS/MS
# Assay type: in vivo, mice (BALB/C)
# TEST CONTEXT: BALB/C, oral, NFV alone, 125 mg/kg or 250 mg/kg every 8 hours by gavage, BALB/C mice, read-out: NFV plasma drug concentration 6 hours after dosing
# Procedure: Administration of PI for Experimental Protocols: Six to eight-week-old BALB/C mice (Jackson Labs, Bar Harbor, Me.) were acclimatized for one week before receiving either control vehicle or PI by gavage. PIs were prepared by dissolving 1% weight per volume carboxymethylcellulose and 15 mg/mL Nelfinavir (NFV) oral powder (commercial preparation, Agouron Laboratories, La Jolla, Calif.) in 2% ethanol in distilled water. […] Drug levels were assessed in two mice each for several time-points. […]
ENDPOINT LABEL: concentration at 6 h

Cc1c(O)cccc1C(=O)N[C@@H](CSc1ccccc1)[C@H](O)CN1C[C@H]2CCCC[C@H]2C[C@H]1C(=O)NC(C)(C)C < 2.5 ng/mL

Just for reference, patent US20050020580A1 is where these values come from.
